TEST_NAME: Bioavailability study of 25/250 mg orally disintegrating tablets in healthy adult volunteers, fasting
Type: in vivo
CONDITION_DESCRIPTION: human, oral, Mean ± SD, 25/250 mg ODT, 36 healthy adult volunteers, plasma
METRIC_NAME: Tmax (h)

(a) N[C@@H](Cc1ccc(O)c(O)c1)C(=O)O [Levodopa, monohydrate]
(b) C[C@@](Cc1ccc(O)c(O)c1)(NN)C(=O)O [Carbidopa]
stdin: Look at a and b . Which one has the lower recorded Tmax number? Answer with the label corresponding to your selection.
stdout: a
(a: 1.7 h, b: 2.8 h)
